Assay: Plasma clearance in rat
Type: ADME
Endpoint label: clearance (mL/min/kg)
Write the value in mL/min/kg as a bare number.

[Q] Entry "CC[C@@]1(C(=O)N[C@@H](Cc2ccc(-c3c(OC)cccc3OC)cc2)C(=O)O)CCN1S(=O)(=O)c1ccccc1" : reported clearance = ?
[A] 110

====

Target: Neprilysin (Homo sapiens, UniProt P08473)
Sequence (P08473 whole entry): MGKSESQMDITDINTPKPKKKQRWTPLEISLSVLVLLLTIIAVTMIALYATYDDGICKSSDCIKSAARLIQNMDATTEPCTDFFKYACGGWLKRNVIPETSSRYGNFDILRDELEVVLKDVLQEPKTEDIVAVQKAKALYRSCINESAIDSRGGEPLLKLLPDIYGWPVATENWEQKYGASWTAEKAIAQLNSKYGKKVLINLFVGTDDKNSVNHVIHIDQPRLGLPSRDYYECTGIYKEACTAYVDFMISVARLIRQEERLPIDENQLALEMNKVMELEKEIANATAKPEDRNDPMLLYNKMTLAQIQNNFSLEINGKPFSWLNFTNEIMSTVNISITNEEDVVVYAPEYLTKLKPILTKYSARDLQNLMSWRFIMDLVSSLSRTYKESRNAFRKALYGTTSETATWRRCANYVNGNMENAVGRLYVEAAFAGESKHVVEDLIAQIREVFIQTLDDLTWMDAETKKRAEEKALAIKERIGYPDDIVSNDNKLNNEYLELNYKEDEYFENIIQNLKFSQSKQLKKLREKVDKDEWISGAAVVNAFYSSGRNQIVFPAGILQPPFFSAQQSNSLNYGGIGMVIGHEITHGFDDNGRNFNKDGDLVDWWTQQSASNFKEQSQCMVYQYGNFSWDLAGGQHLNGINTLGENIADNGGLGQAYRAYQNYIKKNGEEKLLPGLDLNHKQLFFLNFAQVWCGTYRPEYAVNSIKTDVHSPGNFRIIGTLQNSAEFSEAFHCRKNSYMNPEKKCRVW
Endpoint label: pKi
# log scale: pKi equals minus log10 of the concentration in mol/L

[Q] Sample "O=C(O)CC(=O)N[C@H](CS)Cc1ccccc1" — what was its pKi?
[A] 6.68

====

Experiment: Oral bioavailability in Sprague-Dawley rat at 2 mg/kg
Format: ADME, organism-based
Details: in vivo
Endpoint label: bioavailability

[Q] Any idea what bioavailability was measured for "CC[C@@]1(C(=O)N[C@@H](Cc2ccc(-c3c(OC)cccc3OC)cc2)C(=O)O)CCN1S(=O)(=O)c1ccccc1" ?
[A] < 10%

====

Molecular target: Protein-S-isoprenylcysteine O-methyltransferase (Homo sapiens, UniProt O60725)
Sequence (O60725 whole entry): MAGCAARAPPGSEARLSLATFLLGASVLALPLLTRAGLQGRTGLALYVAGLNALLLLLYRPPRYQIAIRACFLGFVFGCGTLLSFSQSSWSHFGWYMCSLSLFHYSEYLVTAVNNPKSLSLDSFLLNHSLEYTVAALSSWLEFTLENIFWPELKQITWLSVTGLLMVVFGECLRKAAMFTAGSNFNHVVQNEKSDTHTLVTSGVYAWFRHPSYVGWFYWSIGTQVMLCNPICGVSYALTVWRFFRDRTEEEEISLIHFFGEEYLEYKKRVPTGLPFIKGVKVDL
Experiment: Inhibition of human isoprenylcysteine carboxyl methyltransferase expressed in Saccharomyces cerevisiae membranes using AFC as substrate in presence of 14C-SAM incubated for 30 min by scintillation counting method
Endpoint label: IC50 (µM)
Report the figure in µM without appending any unit label.

[Q] Report IC50 for "CC(C)=CCC/C(C)=C/CC/C(C)=C/CSC[C@H](NC(=O)c1ccccc1Oc1ccccc1)C(=O)O" please.
[A] 4.3

====

Target: Delta-type opioid receptor (Mus musculus, UniProt P32300)
Sequence (P32300 whole entry): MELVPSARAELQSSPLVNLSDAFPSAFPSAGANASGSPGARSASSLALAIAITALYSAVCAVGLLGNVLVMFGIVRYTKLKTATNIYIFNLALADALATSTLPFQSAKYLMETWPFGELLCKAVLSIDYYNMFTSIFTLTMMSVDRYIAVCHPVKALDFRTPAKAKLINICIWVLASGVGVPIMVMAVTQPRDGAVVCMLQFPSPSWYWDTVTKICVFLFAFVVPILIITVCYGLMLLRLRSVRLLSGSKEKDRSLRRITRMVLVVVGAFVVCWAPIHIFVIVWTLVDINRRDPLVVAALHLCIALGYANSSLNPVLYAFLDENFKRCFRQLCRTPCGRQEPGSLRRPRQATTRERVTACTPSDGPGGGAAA
Test: Inhibition of [3H]-Deltorphin 2 binding to mouse delta opioid receptor expressed in HEK293 cell membranes incubated for 60 mins by Cheng-Prusoff analysis
Set-up: species or system Cell membrane
Endpoint label: pKi
In plain terms, pKi is the concentration in mol/L turned into minus its base-10 logarithm.

[Q] # get_value(readout='pKi', item= "CC(C)C[C@H](NC(=O)[C@@H](/C=C(\F)CNC(=O)CNC(=O)[C@@H](N)Cc1ccc(O)cc1)Cc1ccccc1)C(=O)O" )
[A] 7.37

====

For each entry below, report its KiL value.
Target: D(2) dopamine receptor (Bos taurus) (UniProt P20288)
Sequence (P20288 whole entry): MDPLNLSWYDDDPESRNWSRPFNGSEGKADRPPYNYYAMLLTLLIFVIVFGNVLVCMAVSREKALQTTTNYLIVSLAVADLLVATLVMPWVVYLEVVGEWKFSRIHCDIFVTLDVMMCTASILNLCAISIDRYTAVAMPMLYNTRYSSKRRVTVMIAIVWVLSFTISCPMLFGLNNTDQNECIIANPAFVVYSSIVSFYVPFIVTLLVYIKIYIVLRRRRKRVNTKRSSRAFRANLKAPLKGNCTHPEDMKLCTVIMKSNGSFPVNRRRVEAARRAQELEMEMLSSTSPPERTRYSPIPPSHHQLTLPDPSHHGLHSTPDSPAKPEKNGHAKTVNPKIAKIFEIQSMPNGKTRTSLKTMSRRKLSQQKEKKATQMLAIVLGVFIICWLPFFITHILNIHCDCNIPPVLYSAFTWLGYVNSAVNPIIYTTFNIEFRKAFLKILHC
Assay: Modulation of [3H]Spiroperidol/N-Propylnorapomorphine binding to dopamine D2 receptor in bovine striatal membranes incubated for 1 hr by Cheng-Prusoff analysis
Type: cell membranes
Conditions: Striatum, Membrane, filed as modulator
Provide the reading as a plain figure in nM.

[Q] What does the record list as KiL for "CC(C)C[C@@H](C(=O)NCC(N)=O)N1CC(=O)N2CCC[C@H]2C1=O" ?
[A] 120

[Q] Same again, this time with "NC(=O)[C@H]1CS[C@@H]2C[C@@H](N3CC(=O)N4CCC[C@H]4C3=O)C(=O)N12"
[A] 171

[Q] Follow-up entry: "NC(=O)CN1CC[C@@H](N2CC(=O)N3CCC[C@H]3C2=O)C1=O"
[A] 69

[Q] Also, "CC(C)C[C@H](NC[C@@H]1CCCN1)C(=O)NCC(N)=O" please.
[A] 73.2

====

Molecular target: D(2) dopamine receptor (Bos taurus) (UniProt P20288)
Assay: Modulation of [3H]Spiroperidol/N-Propylnorapomorphine binding to dopamine D2 receptor in bovine striatal membranes incubated for 1 hr by Cheng-Prusoff analysis
Assay type: cell membranes
Settings: Striatum, Membrane, filed as modulator
Endpoint label: KiH (nM)
Output spec: scalar in nM, unitless text.

[Q] Reported KiH for D(2) dopamine receptor (Bos taurus) (UniProt P20288), given "CC(C)C[C@H](NC[C@@H]1CCCN1)C(=O)NCC(N)=O" ?
[A] 0.09

[Q] Can you check "NC(=O)CN1CC[C@@H](N2CC(=O)N3CCC[C@H]3C2=O)C1=O" next?
[A] 0.08

[Q] Thanks! And "NC(=O)[C@H]1CS[C@@H]2C[C@@H](N3CC(=O)N4CCC[C@H]4C3=O)C(=O)N12" ?
[A] 0.098

[Q] Ok, now "CC(C)C[C@@H](C(=O)NCC(N)=O)N1CC(=O)N2CCC[C@H]2C1=O"
[A] 0.08
